assay: Toxicity liver stage against HepG2, at 10uM; type: cell-based; parameters: test concentration 10 uM, cell line HepG2-A16-CD81EGFP; conditions: human, HepG2-A16-CD81EGFP cells; read-out: INHIBITION
measuredEndpoint: cytotoxicity at 10 µM (%)
Write the answer as a number in %, unit excluded.

// below: answered compounds
NC(=O)C1(c2cnccn2)CCCN1Cc1cc2ccccc2o1 (configuration not stated) = -1.19
O=C(c1ccoc1)N1C[C@H]2CC[C@@]3(N=C(c4ccccc4)NC3=O)[C@H]2C1 = 6.79
CC(C)(CN1CCOCC1)CN1CCC(Cc2cccc(CO)c2)C1 (configuration not stated) = -7.73
COCCN1C(=O)C2(CCC(C(=O)Nc3ccccn3)CC2)N=C1C (configuration not stated) = 10.7
Cc1ccc(NS(=O)(=O)c2c[nH]c3ncccc23)nc1 = 6.43

// recorded cytotoxicity at 10 µM for CC(C)Cn1ncc2cc(C(=O)N(C)Cc3cccc(O)c3)cnc21 : -4.67

# cytotoxicity at 10 µM (compound: CC(C)N(C)C(=O)c1ccc(Cl)c(NC(=O)CCN2C(=O)CCC2=O)c1 ) is -2.63

Sure, the documented cytotoxicity at 10 µM for CCc1ccc(CN2C[C@@H]3OCCN(c4ccnc(N(C)C)n4)[C@@H]3C2)o1 is 61.8
